Would you kindly list Activity for each of these compounds?
- Organism: Oryctolagus cuniculus
- protocol-text: Activity at rabbit muscle AMP aminohydrolase after 24 hrs by Lineweaver-Burk plot analysis relative to AMP
- Assay type: tissue-based
- condition-description: Muscle tissue
# output: bare number, implied unit %

IN: Give its Activity value. Item: CCCOC(=O)NCC(C[C@H]1O[C@@H](n2cnc3c(N)ncnc32)[C@H](O)[C@@H]1O)P(=O)(O)O (stereo partly drawn)
OUT: 0

IN: Give its Activity value. Item: NCC(C[C@H]1O[C@@H](n2cnc3c(N)ncnc32)[C@H](O)[C@@H]1O)P(=O)(O)O (stereo partly drawn)
OUT: 0.65

----------
- protocol-text: Linear competitive inhibition of rabbit muscle AMP aminohydrolase using AMP as substrate at 49 to 99 uM by Lineweaver-Burk plot analysis
- Assay type: tissue-based, Oryctolagus cuniculus, Muscle tissue
reported-metric: Ki
Lab note: write values as number then unit, every time.

IN: Give its Ki value. Item: CC(=O)O[C@@H]1[C@H](OC(C)=O)[C@@H](COP(=O)(O)O)O[C@H]1n1cnc2c(N)ncnc21
OUT: 105 µM

----------
- protocol-text: Linear competitive inhibition of rabbit muscle AMP aminohydrolase using AMP as substrate at 26 to 52 uM by Lineweaver-Burk plot analysis
- Format: tissue-based, Oryctolagus cuniculus, Muscle tissue
reported-metric: Ki (µM)
# output: bare number, implied unit µM

IN: Give its Ki value. Item: CC(=O)NCC(C[C@H]1O[C@@H](n2cnc3c(N)ncnc32)[C@H](O)[C@@H]1O)P(=O)(O)O (stereo partly specified)
OUT: 20

----------
- protocol-text: Linear competitive inhibition of rabbit muscle AMP aminohydrolase using AMP as substrate at 12 to 24 uM by Lineweaver-Burk plot analysis
- Format: tissue-based, Oryctolagus cuniculus, Muscle tissue
reported-metric: pKi
Interpret pKi as the negative base-10 log of the concentration measured in mol/L.

IN: Give its pKi value. Item: CCCOC(=O)NCC(C[C@H]1O[C@@H](n2cnc3c(N)ncnc32)[C@H](O)[C@@H]1O)P(=O)(O)O (stereo partly specified)
OUT: 4.85

----------
- protocol-text: Linear noncompetitive inhibition of rabbit muscle AMP aminohydrolase using AMP as substrate at 19 to 38 uM by Lineweaver-Burk plot analysis
- Type: tissue-based, Oryctolagus cuniculus, Muscle tissue
reported-metric: Ki (µM)
# output: bare number, implied unit µM

IN: Give its Ki value. Item: CCC(=O)NC[C@@H](OP(=O)(O)O)[C@H]1O[C@@H](n2cnc3c(N)ncnc32)[C@H](O)[C@@H]1O
OUT: 205

----------
- protocol-text: Retardation factor, Rf of the compound in 5:2:3 1-butanol-acetic acid-water by paper chromatographic analysis
- Format: physicochemical
- condition-description: buffer
Would you kindly list Rf for each of these molecules?
The answer should be written as a number, with no unit following it.

IN: Give its Rf value. Item: CC(=O)OC(C[C@H]1O[C@@H](n2cnc3c(N)ncnc32)[C@H](O)[C@@H]1O)P(=O)(O)O (stereo partly specified)
OUT: 0.31

IN: Give its Rf value. Item: CCCOC(=O)NCC(C[C@H]1O[C@@H](n2cnc3c(N)ncnc32)[C@H](O)[C@@H]1O)P(=O)(O)O (stereo partly specified)
OUT: 0.55

IN: Give its Rf value. Item: CC(=O)O[C@@H]1[C@H](OC(C)=O)[C@@H](COP(=O)(O)O)O[C@H]1n1cnc2c(N)ncnc21
OUT: 0.56

IN: Give its Rf value. Item: CC(=O)OC(C[C@H]1O[C@@H](n2cnc3c(N)ncnc32)[C@@H]2OC(C)(C)O[C@@H]21)P(=O)(O)O (stereo partly specified)
OUT: 0.65

IN: Give its Rf value. Item: CC1(C)O[C@@H]2[C@H](O1)[C@@H](COP(=O)(O)O)O[C@H]2n1cnc2c(N)ncnc21
OUT: 0.59

IN: Give its Rf value. Item: CC(=O)NCC(C[C@H]1O[C@@H](n2cnc3c(N)ncnc32)[C@H](O)[C@@H]1O)P(=O)(O)O (stereo partly specified)
OUT: 0.29

IN: Give its Rf value. Item: CCOC(=O)NCC(C[C@H]1O[C@@H](n2cnc3c(N)ncnc32)[C@H](O)[C@@H]1O)P(=O)(O)O (stereo partly specified)
OUT: 0.41

IN: Give its Rf value. Item: CCC(=O)NCC(C[C@H]1O[C@@H](n2cnc3c(N)ncnc32)[C@H](O)[C@@H]1O)P(=O)(O)O (stereo partly specified)
OUT: 0.39

IN: Give its Rf value. Item: NCC(C[C@H]1O[C@@H](n2cnc3c(N)ncnc32)[C@H](O)[C@@H]1O)P(=O)(O)O (stereo partly specified)
OUT: 0.21

IN: Give its Rf value. Item: N#CC(C[C@H]1O[C@@H](n2cnc3c(N)ncnc32)[C@H](O)[C@@H]1O)P(=O)(O)O (stereo partly specified)
OUT: 0.27

IN: Give its Rf value. Item: COC(=O)NCC(C[C@H]1O[C@@H](n2cnc3c(N)ncnc32)[C@H](O)[C@@H]1O)P(=O)(O)O (stereo partly specified)
OUT: 0.33

----------
- protocol-text: Retardation factor, Rf of the compound in 7:1:2 2-propanol-concentrated ammonia-water by paper chromatographic analysis
- Type: physicochemical
- condition-description: buffer
reported-metric: Rf
The answer should be written as a number, with no unit following it.

IN: Give its Rf value. Item: CC1(C)O[C@@H]2[C@H](O1)[C@@H](COP(=O)(O)O)O[C@H]2n1cnc2c(N)ncnc21
OUT: 0.34

----------
- protocol-text: Linear competitive inhibition of rabbit muscle AMP aminohydrolase using AMP as substrate at 64 to 128 uM by Lineweaver-Burk plot analysis
- Format: tissue-based, Oryctolagus cuniculus, Muscle tissue
reported-metric: pKi
Interpret pKi as the negative base-10 log of the concentration measured in mol/L.

IN: Give its pKi value. Item: CC(=O)OC(C[C@H]1O[C@@H](n2cnc3c(N)ncnc32)[C@H](O)[C@@H]1O)P(=O)(O)O (stereo partly specified)
OUT: 3.48

----------
- protocol-text: Linear competitive inhibition of rabbit muscle AMP aminohydrolase using AMP as substrate at 14 to 28 uM by Lineweaver-Burk plot analysis
- Format: tissue-based, Oryctolagus cuniculus, Muscle tissue
reported-metric: pKi
Interpret pKi as the negative base-10 log of the concentration measured in mol/L.

IN: Give its pKi value. Item: CCC(=O)NC[C@H](OP(=O)(O)O)[C@H]1O[C@@H](n2cnc3c(N)ncnc32)[C@H](O)[C@@H]1O
OUT: 4.38

----------
- protocol-text: Non-linear competitive inhibition of rabbit muscle AMP aminohydrolase using AMP as substrate at 23 uM by Lineweaver-Burk plot analysis
- Type: tissue-based, Oryctolagus cuniculus, Muscle tissue
reported-metric: Ki (µM)
# output: bare number, implied unit µM

IN: Give its Ki value. Item: CC(=O)NC[C@@H](OP(=O)(O)O)[C@H]1O[C@@H](n2cnc3c(N)ncnc32)[C@H](O)[C@@H]1O
OUT: 47

----------
- protocol-text: Retardation factor, Rf of the compound in 4:1:5 1-butanol-acetic acid-water by paper chromatographic analysis
- Format: physicochemical
- condition-description: buffer
reported-metric: Rf
The answer should be written as a number, with no unit following it.

IN: Give its Rf value. Item: CC(=O)OC(C[C@H]1O[C@@H](n2cnc3c(N)ncnc32)[C@@H]2OC(C)(C)O[C@@H]21)P(=O)(O)O (some centres undefined)
OUT: 0.5

IN: Give its Rf value. Item: CC1(C)O[C@@H]2[C@H](O1)[C@@H](COP(=O)(O)O)O[C@H]2n1cnc2c(N)ncnc21
OUT: 0.4

IN: Give its Rf value. Item: CC(=O)O[C@@H]1[C@H](OC(C)=O)[C@@H](COP(=O)(O)O)O[C@H]1n1cnc2c(N)ncnc21
OUT: 0.34

IN: Give its Rf value. Item: CC(=O)OC(C[C@H]1O[C@@H](n2cnc3c(N)ncnc32)[C@H](O)[C@@H]1O)P(=O)(O)O (some centres undefined)
OUT: 0.18

----------
- Species on record: Oryctolagus cuniculus
- protocol-text: Activity at rabbit muscle AMP aminohydrolase after 24 hrs by Lineweaver-Burk plot analysis relative to AMP
- Format: tissue-based
- condition-description: Muscle tissue
reported-metric: Activity (%)
# output: bare number, implied unit %

IN: Give its Activity value. Item: CCOC(=O)NCC(C[C@H]1O[C@@H](n2cnc3c(N)ncnc32)[C@H](O)[C@@H]1O)P(=O)(O)O (stereo partly drawn)
OUT: 0

IN: Give its Activity value. Item: CC(=O)NCC(C[C@H]1O[C@@H](n2cnc3c(N)ncnc32)[C@H](O)[C@@H]1O)P(=O)(O)O (stereo partly drawn)
OUT: 0.61

IN: Give its Activity value. Item: Nc1ncnc2c1ncn2[C@@H]1O[C@H](COP(=O)(O)O)[C@@H](O)[C@H]1O
OUT: 100

IN: Give its Activity value. Item: CC1(C)O[C@@H]2[C@H](O1)[C@@H](COP(=O)(O)O)O[C@H]2n1cnc2c(N)ncnc21
OUT: 0.5

IN: Give its Activity value. Item: CC(=O)OC(C[C@H]1O[C@@H](n2cnc3c(N)ncnc32)[C@H](O)[C@@H]1O)P(=O)(O)O (stereo partly drawn)
OUT: 7.8

IN: Give its Activity value. Item: CC(=O)O[C@@H]1[C@H](OC(C)=O)[C@@H](COP(=O)(O)O)O[C@H]1n1cnc2c(N)ncnc21
OUT: 0.07

IN: Give its Activity value. Item: COC(=O)NCC(C[C@H]1O[C@@H](n2cnc3c(N)ncnc32)[C@H](O)[C@@H]1O)P(=O)(O)O (stereo partly drawn)
OUT: 0

IN: Give its Activity value. Item: CCC(=O)NCC(C[C@H]1O[C@@H](n2cnc3c(N)ncnc32)[C@H](O)[C@@H]1O)P(=O)(O)O (stereo partly drawn)
OUT: 0
